Here the recorded SSMD is given for each entry.
run_description: compounds altering HSF1 focus formation in cells – imaging, Selleck Cancer Library (AID 1347162)
run_parameters: human cells, HSF1 nuclear foci imaging, at 10 µM; measured here: HSF1 foci SSMD mean
# print the numeric value only

For orientation, consider the following solved cases.
> print(dat)
                                   compound     val
1  COc1nc(-c2ccc3c(c2)OCO3)n(-c2ccc(NC(=O)CSc3ccccc3)cc2)n1   0.993
2  COc1ccc(-c2ccc3c(N4CCOC[C@@H]4C)nc(N4CCOC[C@@H]4C)nc3n2)cc1CO  -0.138
3  CN1CCN(c2ccc3nc(-c4c(N)c5c(F)cccc5[nH]c4=O)[nH]c3c2)CC1   -9.43
4     COc1c(C)cnc(Cn2cnc3c(Cl)nc(N)nc32)c1C    4.45
5  Oc1cccc(-c2nc(N3CCOCC3)c3oc4ncccc4c3n2)c1   -4.03
6  COC(=O)Nc1ccc(-c2nc(N3CCOCC3)c3cnn(C4CCN(C(=O)OC)CC4)c3n2)cc1    1.11
7  CCOc1cc2ncc(C#N)c(Nc3ccc(F)c(Cl)c3)c2cc1NC(=O)/C=C/CN(C)C    3.17
8  CCc1cncnc1N1CCN(Cc2nc3ccc(C(F)(F)F)cc3[nH]2)CC1    2.94

IN: Name the reported SSMD value associated with the compound O=C(/C=C/c1cccc(S(=O)(=O)Nc2ccccc2)c1)NO
OUT: -3.23

IN: Need SSMD of CS(=O)(=O)c1ccc(C(=O)Nc2ccc(Cl)c(-c3ccccn3)c2)c(Cl)c1 , thanks.
OUT: 2.58

IN: SSMD lookup needed for Nc1ccccc1NC(=O)c1ccc(CNC(=O)OCc2cccnc2)cc1 , thanks.
OUT: 2.19

IN: So what does the record say about SSMD for CN1CCC(CNc2ccc3ncc(-c4cccc(OC(F)(F)F)c4)n3n2)CC1 ?
OUT: 1.66

IN: Give the measured SSMD of OCCn1cc(-c2ccc3c(c2)CC/C3=N\O)c(-c2ccncc2)n1 .
OUT: 1.73

IN: Form field: reported SSMD of O=C(NCCS(=O)(=O)c1ccc(C(F)(F)F)cn1)c1ccc(Cl)cc1
OUT: 3.34

IN: Quick one: SSMD of COc1cc2ncnc(Nc3ccc(F)c(Cl)c3)c2cc1NC(=O)/C=C/CN1CCCCC1 ?
OUT: 1.69

IN: Please look up its SSMD: CNC(=O)c1ccc(N2C(=S)N(c3ccc(C#N)c(C(F)(F)F)c3)C(=O)C2(C)C)cc1F
OUT: 0.472

The reported measurements were obtained from PubChem BioAssay.
